measured.target: D(2) dopamine receptor (Rattus norvegicus)
Sequence (P61169 whole entry): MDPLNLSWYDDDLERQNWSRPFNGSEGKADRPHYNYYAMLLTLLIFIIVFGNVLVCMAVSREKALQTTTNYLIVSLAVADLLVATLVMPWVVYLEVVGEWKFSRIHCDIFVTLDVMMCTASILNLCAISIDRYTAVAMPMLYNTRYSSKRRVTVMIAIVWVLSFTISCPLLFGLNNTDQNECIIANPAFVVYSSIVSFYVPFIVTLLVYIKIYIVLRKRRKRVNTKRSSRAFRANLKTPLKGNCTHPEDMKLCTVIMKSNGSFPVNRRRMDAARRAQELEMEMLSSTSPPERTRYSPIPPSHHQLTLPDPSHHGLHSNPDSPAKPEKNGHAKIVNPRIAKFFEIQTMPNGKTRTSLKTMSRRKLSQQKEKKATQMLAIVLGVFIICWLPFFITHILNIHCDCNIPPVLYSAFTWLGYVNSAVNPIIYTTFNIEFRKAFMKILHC
measurement.protocol: Radioligand Binding Assay (Ki)
endpoint.label: Ki

compound: O=C1CCC(=O)N1C1CCC(N2CCN(c3cccc(C(F)(F)F)c3)CC2)CC1 (stereo unspecified) [1-(m-trifluorophenyl)piperazine, 4]
endpoint.label: Ki
measured.result: > 25 µM

----------
measured.target: Alpha-1B adrenergic receptor (Rattus norvegicus, UniProt P15823)
Sequence (P15823 whole entry): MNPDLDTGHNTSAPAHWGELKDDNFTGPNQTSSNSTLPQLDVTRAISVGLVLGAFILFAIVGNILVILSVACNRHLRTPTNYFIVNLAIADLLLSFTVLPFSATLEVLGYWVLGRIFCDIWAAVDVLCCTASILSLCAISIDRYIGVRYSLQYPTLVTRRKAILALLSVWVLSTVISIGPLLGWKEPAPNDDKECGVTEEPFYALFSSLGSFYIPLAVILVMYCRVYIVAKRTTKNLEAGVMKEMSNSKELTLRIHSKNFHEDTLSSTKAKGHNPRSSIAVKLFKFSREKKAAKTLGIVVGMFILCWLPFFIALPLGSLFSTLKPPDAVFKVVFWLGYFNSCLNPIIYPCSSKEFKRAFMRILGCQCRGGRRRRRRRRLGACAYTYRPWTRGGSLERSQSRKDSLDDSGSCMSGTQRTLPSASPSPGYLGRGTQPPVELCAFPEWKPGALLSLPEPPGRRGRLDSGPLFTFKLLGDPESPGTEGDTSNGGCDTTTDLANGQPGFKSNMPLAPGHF
pKi: −log10 of the molar value.
endpoint.label: pKi

compound: O=C1CCC(=O)N1C1CCC(N2CCN(c3cccc(C(F)(F)F)c3)CC2)CC1 (stereo unspecified)
measured.target: Alpha-1B adrenergic receptor (Rattus norvegicus, UniProt P15823)
endpoint.label: pKi
measured.result: 6.30
